Data origin: patent US20080255137A1

assaySystem: 5HT2A receptor (Homo sapiens)
Sequence (P28223 whole entry): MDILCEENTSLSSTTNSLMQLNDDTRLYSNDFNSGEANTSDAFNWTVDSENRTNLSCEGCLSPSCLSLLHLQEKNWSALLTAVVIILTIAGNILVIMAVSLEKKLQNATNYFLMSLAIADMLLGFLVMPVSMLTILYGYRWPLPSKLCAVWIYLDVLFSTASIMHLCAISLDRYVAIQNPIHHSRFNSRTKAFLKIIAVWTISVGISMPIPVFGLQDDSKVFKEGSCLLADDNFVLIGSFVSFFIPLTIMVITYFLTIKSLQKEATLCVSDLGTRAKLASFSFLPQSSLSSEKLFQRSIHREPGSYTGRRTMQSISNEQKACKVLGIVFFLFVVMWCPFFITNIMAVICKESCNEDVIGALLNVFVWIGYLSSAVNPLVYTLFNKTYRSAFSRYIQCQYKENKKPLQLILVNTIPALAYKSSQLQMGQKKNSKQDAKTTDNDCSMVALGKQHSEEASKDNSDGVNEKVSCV
methodNotes: EC50 against the 5HT2A receptor (selectivity)
pEC50: −log10 of the molar value.
measurementName: pEC50

With 5HT2A receptor (Homo sapiens) as the test system, C[C@@H]1CNCCN1c1cccc(-c2ccccc2)c1F showed pEC50 of ~5.77
